What Kd was measured for each of the following?
# measuredTarget: 6×His-tag cleaved FcRn/β2m (UniProt P55899 24-365; P61769 21-119)
# Sequence (P55899 24-365, chain 1 of 2): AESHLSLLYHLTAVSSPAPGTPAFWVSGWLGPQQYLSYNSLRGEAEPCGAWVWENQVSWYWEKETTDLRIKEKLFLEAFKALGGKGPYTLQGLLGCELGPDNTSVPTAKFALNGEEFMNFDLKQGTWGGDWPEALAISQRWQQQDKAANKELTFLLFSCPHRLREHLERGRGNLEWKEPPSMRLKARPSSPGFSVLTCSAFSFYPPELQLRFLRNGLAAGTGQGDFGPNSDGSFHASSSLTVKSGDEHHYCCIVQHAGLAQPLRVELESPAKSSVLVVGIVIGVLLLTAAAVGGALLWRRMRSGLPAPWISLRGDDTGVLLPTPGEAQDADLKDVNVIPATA
# Sequence (P61769 21-119, chain 2 of 2): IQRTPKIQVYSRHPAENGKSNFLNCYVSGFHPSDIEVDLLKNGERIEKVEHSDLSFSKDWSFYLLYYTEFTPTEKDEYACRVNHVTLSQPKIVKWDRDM
# assayMethodText: BLI; pH 7.4; IgG immobilised
The figure you give is taken to be in nM; do not add the unit.

Input: For VRC07-523LS.v1 (antibody) chain 1: QVRLSQSGGQMKKPGDSMRISCRASGYEFINCPINWIRLAPGKRPEWMGWMKPRFGAVSYARQLQGRVTMTRQLSQDPDDPDWGTAFLELRSLTSDDTAVYFCTRGKYCTARDYYNWDFEHWGQGTPVTVSS chain 2: LTQSPGTLSLSPGETAIISCRTSQYGSLAWYQQRPGQAPRLVIYSGSTRAAGIPDRFSGSRWGPDYNLTISNLESGDFGVYYCQQYEFFGQGTKVQVD , write its Kd.
Output: 180

Input: For VRC07-523LS.v34 (antibody) chain 1: QVRLSQSGGQMKKPGDSMRISCSASGYEFINCPINWIRLAPGKRPEWMGWMKPRFGAVSYARQLQGRVTMTRQLSQDPDDPDWGTAFLELRSLTSDDTAVYFCTRGSYCTARDYYNWDFEHWGQGTPVTVSS chain 2: LTQSPGTLSLSPGETAIISCETSQYGSLAWYQQRPGQAPRLVIYSGSTRAAGIPDRFSGSRWGPDYNLTISNLESGDFGVYYCQQYEFFGQGTKVQVD , write its Kd.
Output: 170

Input: For VRC07-523LS.v23 (antibody) chain 1: QVRLSQSGGQMKKPGDSMRISCRASGYEFINCPINWIRLAPGKRPEWMGWMKPRFGAVSYARQLQGRVTMTRQLSQDPDDPDWGTAFLELRSLTSDDTAVYFCTRGKYCTARDYYNWDFEHWGQGTPVTVSS chain 2: LTQSPGTLSLSPGETAIISCSTSQYGSLAWYQQRPGQAPRLVIYSGSTRAAGIPDRFSGSRWGPDYNLTISNLESGDFGVYYCQQYEFFGQGTKVQVD , write its Kd.
Output: 170

Input: For VRC07-523LS.v37 (antibody) chain 1: QVRLSQSGGQMKKPGDSMRISCQASGYEFINCPINWIRLAPGKRPEWMGWMKPRFGAVSYARQLQGRVTMTRQLSQDPDDPDWGTAFLELRSLTSDDTAVYFCTRGQYCTARDYYNWDFEHWGQGTPVTVSS chain 2: LTQSPGTLSLSPGETAIISCETSQYGSLAWYQQRPGQAPRLVIYSGSTRAAGIPDRFSGSRWGPDYNLTISNLESGDFGVYYCQQYEFFGQGTKVQVD , write its Kd.
Output: 180
